Reported pKd values for a set of binders
biological target: T1, human CD3e/d (human, UniProt P07766 23-126; P04234 22-105); assay: SPR (Carterra LSA), mAb on chip
T1 construct: Bought soluble protein; also called hCD3e/d; human CD3/ed (Sino CT038-H2508H)
T1 sequence (P07766 23-126, chain 1 of 2): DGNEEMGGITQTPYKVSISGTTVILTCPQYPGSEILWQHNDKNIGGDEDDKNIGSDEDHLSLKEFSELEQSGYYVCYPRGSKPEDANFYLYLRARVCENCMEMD
T1 sequence (P04234 22-105, chain 2 of 2): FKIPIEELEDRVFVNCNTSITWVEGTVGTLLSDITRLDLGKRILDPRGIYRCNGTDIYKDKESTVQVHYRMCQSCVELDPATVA
// pKd: -log10(molar conc.)

Some binders with recorded pKd:
# binder, quantityKind, reportedValue
rows = [
    ("mAb 113 (antibody, V domains shown, VH and VL only) VH: EVQLVESGGGLVKTGGSLRLSCVASGFSFKKAWMNWVRQAPGKGLEWVGRIKRNTDGGTTDYAAPVKGRFTLSRDDSKNTLYLQMNSLKTEDTAVYYCTTLDSSSWYVGYYYMDVWGKGTTVTVSS VL: DIQMTQSPSSVSASVGDRVTITCRASQDINNWLAWYQQKPGKAPKILIYTASSLQSGVPSRFSGSGSGTDFTLTISSLQPEDFATYYCQQAHSLPITFGQGTRLEIK", "pKd", 6.97),
    ("mAb 191 (antibody, V domains shown, VH and VL only) VH: QVQLVESGGGVVQPGRSLRLSCAASGFTFSGYGMHWVRQAPGKGLEWVAIIYYNGKKEYYADSVKGRFTISRDNSKNTLYLQMNSLRAEDTAVYYCTRGEGYNWFDPWGQGTLVTVSS VL: EIVMTQSPATLSVSPGERATLSCRASQSVSSNLAWYQQKPGQAPRLLIYGASTRATGIPARFSGSGSGTDFTLTISSLQSEHFAVYYCQQYTNWPLTFGGGTKVEIK", "pKd", 7.55),
]

Req: Tell me measured pKd for mAb 292 (antibody, V domains shown, VH and VL only) VH: EVQLLESGGGLVQPGGSRRLSCAASGFTFSTYAMSWVRQAPGKGLEWVSVINGRGDDTNYADSVKGRFTISRDNSKNILFLQMNSLRAEDTAVYYCAKKYSYYYYYMDVWGKGTTVTVSS VL: SYELTQPLSVSVALGQTARITCGGNNIGSKDVHWYQQKPGQAPVLVIYRDSNRPSGIPERFSGSNSGNTATLTISRAQAGDEADYYCQVWDSRTAVFGGGTQLTAL please.
Resp: 7.04
